Target: Dihydrofolate reductase (Rattus norvegicus, UniProt Q920D2)
Sequence (Q920D2 whole entry): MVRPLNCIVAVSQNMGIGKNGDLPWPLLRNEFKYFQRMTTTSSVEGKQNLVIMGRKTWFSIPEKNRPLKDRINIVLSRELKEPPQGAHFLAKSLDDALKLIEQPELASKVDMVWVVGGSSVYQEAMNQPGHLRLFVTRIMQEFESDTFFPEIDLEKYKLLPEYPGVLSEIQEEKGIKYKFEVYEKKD
Metric Name: pIC50
pIC50 is defined as minus the log10 of a concentration measured in mol/L.

// below: answered molecules
- C=CCc1cc(Cc2cnc(N)nc2N)ccc1O: 4.02
- CCc1cc(Cc2cnc(N)nc2N)cc2c1OC(C)C2 (stereo not given): 4.96
- C=CCOc1ccc(Cc2cnc(N)nc2N)cc1OC: 4.31
- Cc1cc(Cc2cnc(N)nc2N)cc2c1OC(C)(C)C2: 4.43

We next turn to a different molecule, shown below.
The recorded pIC50 for entry C/C=C/c1cc(Cc2cnc(N)nc2N)cc(/C=C/C)c1OC equals 4.57

====

Target chain: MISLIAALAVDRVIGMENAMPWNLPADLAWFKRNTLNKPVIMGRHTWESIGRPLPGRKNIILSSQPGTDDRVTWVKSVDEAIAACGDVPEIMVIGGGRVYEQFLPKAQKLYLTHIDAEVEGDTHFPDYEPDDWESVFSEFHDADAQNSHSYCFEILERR
Metric Name: Ki (nM)
Provide only the numeric value, understood in nM.

The recorded Ki for entry C=CCc1cc(Cc2cnc(N)nc2N)cc(CCC)c1OC equals 1.6

====

system: Escherichia coli; assay: Antibacterial (Escherichia coli) activity compared to trimethoprim.; format: functional
Some compounds, each annotated with its measured MIC.
Provide only the numeric value, understood in µg/mL.

// below: answered compounds
• COc1cc(Cc2cnc(N)nc2N)cc(OC)c1OC = 1
• C/C=C/c1cc(Cc2cnc(N)nc2N)cc(OC)c1OC = 6
• CCOc1cc(Cc2cnc(N)nc2N)cc(OC)c1OC = 2.6
• C=CCc1cc(Cc2cnc(N)nc2N)cc(OC)c1OC = 6
• C=CCc1cc(Cc2cnc(N)nc2N)ccc1O = 16

The recorded MIC for entry C=CCc1cc(Cc2cnc(N)nc2N)cc(CC=C)c1O equals 21

The recorded MIC for entry C/C=C/c1cc(Cc2cnc(N)nc2N)cc(/C=C/C)c1OC equals 72

The recorded MIC for entry C=CCOc1ccc(Cc2cnc(N)nc2N)cc1CC=C equals 72

The recorded MIC for entry C=CCc1cc(Cc2cnc(N)nc2N)cc(CC=C)c1OC equals 72

The recorded MIC for entry CCCOc1cc(Cc2cnc(N)nc2N)cc(OC)c1OC equals 6

The recorded MIC for entry C=CCc1cc(Cc2cnc(N)nc2N)cc(CCC)c1OC equals 38

====

Some compounds, each annotated with its measured MIC.
test system: Klebsiella aerogenes; experiment: Ratio of antibacterial (Enterobacter aerogenes, 2201/86) activities of compound and trimethoprim; assay type: functional
Remember to put the unit after the number in your answer.

// below: answered compounds
• CCOc1cc(Cc2cnc(N)nc2N)cc2c1OCO2 = 10 µg/mL
• CCc1cc(Cc2cnc(N)nc2N)cc2c1OC(C)C2 (stereo unspecified) = 30 µg/mL
• CCCc1cc(Cc2cnc(N)nc2N)cc2c1OC(C)C2C (stereo unspecified) = 30 µg/mL
• CCCc1cc(Cc2cnc(N)nc2N)cc2c1OC(C)C2 (stereo unspecified) = 100 µg/mL
• Cc1cc(Cc2cnc(N)nc2N)cc2c1OC(C)(C)C2 = 30 µg/mL

The recorded MIC for entry CCCc1cc(Cc2cnc(N)nc2N)cc2c1OC(C)(C)C2 equals 100 µg/mL

Reference source: ChEMBL document CHEMBL1124568
